These entries and their values trace back to the supplement of paper PMC10567573.

Parameter protein stability index: see the listing below.
B1: ZNF449 (parent)
chain: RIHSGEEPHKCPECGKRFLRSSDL

variants of: B1; assay: protein stability index of a GFP-peptide fusion (GPS, HEK-293T) (PSI 1-6); higher = more stable; conditions: c terminus: a fixed tail appended;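 further: lentivirally expressed fusions sorted by FACS into six bins by GFP to DsRed ratio, PSI derived from sequencing read proportions per bin multiplied by bin number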

Specify protein stability index for `C11W` and stop.
3.79

Others:
Provide only the value of recorded protein stability index for `R1Y`
1.9

Read the entry `C14A` and write its reported protein stability index.
4.26

Look up and state reported protein stability index for `E13Y`
3.54

Give protein stability index for the following variant: `K10W`
3.72
